assay: viability of PTEN-null HCT116 cells – cell-based, HCT116 clonal line, CellTiter-Glo, pilot screen (AID 824); conditions: HCT116 PTEN-deleted viability, 60 h, at 10 µM, stronger effect = lower value;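 further: 0% = 20 µM Hyamine control and 100% = vehicle cell control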
Results filed as inconclusive are left out.
MEASUREMENT KIND: viability (%)
// units = %; emit number, no label

Query: Fill in reported viability for this entry: CC(C)=C(NC(=O)c1ccccc1)C(=O)NCCCC(=O)O
Reply: 103

Query: Fill in reported viability for this entry: Cc1ccc2oc(=O)c3cnn(CC(=O)NCCc4ccsc4)c3c2c1
Reply: 85.7

Query: Fill in reported viability for this entry: Cc1c(-n2c(CN3C(=O)c4ccccc4C3=O)nc3ccccc3c2=O)c(=O)n(-c2ccccc2)n1C
Reply: 99.6

Query: Fill in reported viability for this entry: COCCNC(=O)Cn1ncc2ccsc2c1=O
Reply: 100

Query: Fill in reported viability for this entry: CC(=O)Nn1cc2c(c1-c1ccccc1)c(=O)n(C)c(=O)n2C
Reply: 87.2

Query: Fill in reported viability for this entry: O=C(CSc1ncnc2nc[nH]c12)c1ccc(Cl)cc1
Reply: 37.7

Query: Fill in reported viability for this entry: COc1ccc(Cc2nnc(NC(=O)c3c(-c4ccccc4)noc3C)s2)cc1
Reply: 85.2

Query: Fill in reported viability for this entry: COc1ccc(-c2nc3c(n2O)CCC/C3=N\O)cc1
Reply: 96

Query: Fill in reported viability for this entry: CC(c1ccco1)N(C(=O)COc1ccc(Cl)cc1Cl)c1ccccn1 (stereo not given)
Reply: 65.6

Query: Fill in reported viability for this entry: COc1ccc(NC(=O)CC2Sc3ncnn3C2=O)cc1 (stereo not given)
Reply: 104

Query: Fill in reported viability for this entry: O=C(NCCN1CCN(c2ccccc2)CC1)c1ccc(NC(=O)C2CCCO2)cc1 (stereo not given)
Reply: 101

Query: Fill in reported viability for this entry: COc1ccc(-c2nc(CS(=O)CC(=O)NCc3ccccn3)c(C)o2)cc1 (stereo not given)
Reply: 98.5

Query: Fill in reported viability for this entry: CCOc1ccc(NC(=O)CSc2nnc(COc3c(C)cccc3C)o2)cc1
Reply: 98.3

Query: Fill in reported viability for this entry: O=C(CCc1nc2ccccc2[nH]1)NC1CCCCC1
Reply: 96.9

Query: Fill in reported viability for this entry: CCOc1ccc(N(CC(=O)NC2CCCC(C)C2C)S(=O)(=O)c2c(C)noc2C)cc1 (stereo not given)
Reply: 83.6

Query: Fill in reported viability for this entry: Cn1c(=O)c2c(nc(SCCCC#N)n2Cc2c(F)cccc2Cl)n(C)c1=O
Reply: 86.1

Query: Fill in reported viability for this entry: Cc1nc2sc(C(c3cccs3)N3CCC(C(N)=O)CC3)c(O)n2n1 (stereo not given)
Reply: 94.2

Query: Fill in reported viability for this entry: CN1CCc2c(sc3c2C(=O)NC(c2cccc(OC(=O)c4cccs4)c2)N3)C1 (stereo not given)
Reply: 93.8

Query: Fill in reported viability for this entry: Cc1cc(NS(=O)(=O)c2ccc(NC(=O)COc3ccccc3C(C)C)cc2)no1
Reply: 83.4

Query: Fill in reported viability for this entry: Cc1onc(-c2ccccc2Cl)c1C(=O)Nc1ccc(S(=O)(=O)N2CCCC2)cc1
Reply: 81.2

Query: Fill in reported viability for this entry: Cc1ccccc1Cn1cc(/C=N/n2cnnc2)c2ccccc21
Reply: 61.6

Query: Fill in reported viability for this entry: O=C1CCC(C(=O)NC2(C(=O)NC3CCCCC3)CCCCC2)N1 (stereo not given)
Reply: 104

Query: Fill in reported viability for this entry: Cc1noc(C(=O)Nc2ccc3c(c2)OCO3)c1Cl
Reply: 89.7

Query: Fill in reported viability for this entry: Cc1ccc(N=Cc2ccc(O)cc2O)cc1F
Reply: 77.8

Query: Fill in reported viability for this entry: O=C(NCCN1C(=O)C2C3C=CC(C3)C2C1=O)N1CCOCC1 (stereo not given)
Reply: 94.9

Query: Fill in reported viability for this entry: CCOc1ccc(N2CC(C(=O)Nc3ccccc3OC)CC2=O)cc1 (stereo not given)
Reply: 102

Query: Fill in reported viability for this entry: Cc1cc(C)n(-c2cc(N3CCOCC3)ncn2)n1
Reply: 93.1

Query: Fill in reported viability for this entry: O=C(NCCc1c[nH]c2ccccc12)c1cnc2n(c1=O)CCS2
Reply: 95.7

Query: Fill in reported viability for this entry: CCNc1nnc(-c2ccccc2OC)s1
Reply: 103

Query: Fill in reported viability for this entry: COC(=O)COc1cccc(NC(=O)COc2ccccc2)c1
Reply: 93.7

Query: Fill in reported viability for this entry: CCOC(=O)c1csc(NC(=O)C2CCCCC2)n1
Reply: 94.6

Query: Fill in reported viability for this entry: O=C(COc1ccc(Cl)cc1)Nc1nnc(-c2ccc3c(c2)CCCC3)o1
Reply: 96.5

Query: Fill in reported viability for this entry: CNC(=O)c1ccc2snnc2c1
Reply: 97.9

Query: Fill in reported viability for this entry: COC(=O)C1=CNC=C(C(=O)OC)C1c1ccc(C(=O)OC)cc1
Reply: 98.3

Query: Fill in reported viability for this entry: COc1ccc(N2CCN(C(=O)c3c(-c4ccccc4)noc3C)CC2)cc1
Reply: 90.3

Query: Fill in reported viability for this entry: Cc1oc(-c2cccc(Cl)c2)nc1CN1CCC(C(=O)NCCCN2CCCC2=O)CC1
Reply: 93.5

Query: Fill in reported viability for this entry: O=C(NCCc1csc(-c2ccccc2)n1)c1cccs1
Reply: 94.5

Query: Fill in reported viability for this entry: Cc1cc(/C=N/n2cnnc2)c(C)n1-c1ccc(C(=O)O)cc1
Reply: 99

Query: Fill in reported viability for this entry: CC1(C)NC(=O)N(CC(O)COc2cccc(F)c2)C1=O (stereo not given)
Reply: 97.9

Query: Fill in reported viability for this entry: CCSC(C)CC1C/C(=N/O)c2c(CC)noc2C1 (stereo not given)
Reply: 94.2

* * *

test: reduced viability of SK-BR-3 breast cancer cells – cell-based, 24 h, human, pilot screen (AID 572); details: SK-BR-3 viability, CellTiter-Glo luminescence, at 10 µM, stronger effect = lower value;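 further: compound exposure lasted between 18 and 24 h rather than exactly 24 h; 100% = carrier-treated control wells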
Calls of active or inactive are those of the source.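 The calls were made as follows: active = viability at or below 10% of carrier control in both of two separate runs; inconclusive = viability at or below 10% in only one of the two runs; inactive = the rest.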
I'd be grateful if you could share measured viability for these entries.

Query: Fill in reported viability for this entry: O=C(C1CCCN(S(=O)(=O)c2cccnc2)C1)N1CCn2c1nc1ccccc12 (stereo unspecified)
Reply: 90.5% (inactive)

Query: Fill in reported viability for this entry: CCOc1cc(C2CC(=O)N3CN(C4CCCCC4)CSC3=C2C#N)ccc1O (stereo unspecified)
Reply: 85% (inactive)

Query: Fill in reported viability for this entry: CCOC(=O)C1CCN(c2c(NC3CCCc4ccccc43)c(=O)c2=O)CC1 (stereo unspecified)
Reply: 82% (inactive)

Query: Fill in reported viability for this entry: O=C(c1cc(C2CC2)on1)N1CCN(C(c2ccccc2)c2ccccc2)CC1
Reply: 84.5% (inactive)

Query: Fill in reported viability for this entry: CN1CCN(CCCNC(=O)Cn2ncc3c4ccccc4n(C)c3c2=O)CC1
Reply: 84% (inactive)

Query: Fill in reported viability for this entry: CCOc1ccccc1NC(=O)CSc1nnc(Cc2cccn2C)n1-c1ccc(F)cc1
Reply: 92.5% (inactive)

Query: Fill in reported viability for this entry: CCOc1ccc(N(CC(=O)OC)S(=O)(=O)c2ccc(OC)c(OC)c2)cc1
Reply: 108% (inactive)

Query: Fill in reported viability for this entry: N#CCCN1CCN(S(=O)(=O)c2ccc(S(=O)(=O)NC3CCCC3)cc2)CC1
Reply: 88.5% (inactive)

Query: Fill in reported viability for this entry: O=C(NCCCN1CCOCC1)c1cc(-c2ccc(O)cc2)on1
Reply: 100% (inactive)

Query: Fill in reported viability for this entry: O=C(NCCN1C(=O)C2C3C=CC(C3)C2C1=O)N1CCOCC1 (stereo unspecified)
Reply: 89.5% (inactive)

Query: Fill in reported viability for this entry: CCOc1ccc(NC(=O)CN(c2cc(C)cc(C)c2)S(=O)(=O)c2c(C)noc2C)cc1
Reply: 94% (inactive)

Query: Fill in reported viability for this entry: c1ccc(CN2CCN(CCCNc3ccc4nnc(-c5ccccc5)n4n3)CC2)cc1
Reply: 83% (inactive)

Query: Fill in reported viability for this entry: CCOc1ccc(NC(=O)CCN2CCN(c3ccccc3)CC2)cc1
Reply: 94.5% (inactive)

Query: Fill in reported viability for this entry: O=C(CCN1C(=O)c2ccccc2C1=O)NCCN1CCOCC1
Reply: 105% (inactive)

Query: Fill in reported viability for this entry: Cc1cccc(OCC(=O)N2CCN(C(=O)Cc3ccccc3)CC2)c1
Reply: 102% (inactive)

Query: Fill in reported viability for this entry: CC(CCc1ccccc1)NC(=O)C1CCCN(c2nnc(-n3cccc3)s2)C1 (stereo unspecified)
Reply: 89.5% (inactive)

Query: Fill in reported viability for this entry: CCN1CCN(C(=O)Cn2ncc3ccsc3c2=O)CC1
Reply: 101% (inactive)

Query: Fill in reported viability for this entry: O=C(NCc1ccc2c(c1)OCO2)C1CCC(CNc2c(N3CCCCC3)c(=O)c2=O)CC1 (stereo unspecified)
Reply: 92.5% (inactive)

Query: Fill in reported viability for this entry: FC(F)(F)COc1nc(N2CCCCC2)nc(N2CCNCC2)n1
Reply: 82% (inactive)

Query: Fill in reported viability for this entry: CCCN(CCC)C(=O)c1c(C)[nH]c(C(=O)OCC)c1C
Reply: 98% (inactive)

Query: Fill in reported viability for this entry: COCCNC(=O)CN1CCN(Cc2cccc(Cl)c2)C1=O
Reply: 102% (inactive)

Query: Fill in reported viability for this entry: Cc1cc(NS(=O)(=O)c2ccccc2)no1
Reply: 114% (inactive)

Query: Fill in reported viability for this entry: COc1ccc(C2CC(=O)C(C=NCCCN3CCOCC3)=C(O)C2)cc1 (stereo unspecified)
Reply: 84.5% (inactive)

Query: Fill in reported viability for this entry: O=C(CCNS(=O)(=O)c1cccc2nsnc12)Nc1ccc2c(c1)OCCO2
Reply: 90.5% (inactive)

Query: Fill in reported viability for this entry: COc1ccccc1C(=O)OCn1nnc2ccccc2c1=O
Reply: 96.5% (inactive)

Query: Fill in reported viability for this entry: CN(C)c1oc(-c2ccccc2F)nc1C#N
Reply: 95% (inactive)

Query: Fill in reported viability for this entry: COc1c(C(=O)Nc2c(C)n(C)n(-c3ccccc3)c2=O)ccc2ccccc12
Reply: 97% (inactive)

Query: Fill in reported viability for this entry: O=C(CSC1=NCCS1)NCc1ccco1
Reply: 84% (inactive)

Query: Fill in reported viability for this entry: O=C(Nc1nc2c(s1)CCCC2)C1COc2ccccc2O1 (stereo unspecified)
Reply: 103% (inactive)

Query: Fill in reported viability for this entry: O=C(O)CC(C(=O)Nc1cccc(C(F)(F)F)c1)C1CCCO1 (stereo unspecified)
Reply: 76% (inactive)

Query: Fill in reported viability for this entry: O=C(Nc1ccc2c(c1)OCO2)c1ccc(CN2CCOCC2)cc1
Reply: 97.5% (inactive)

Query: Fill in reported viability for this entry: CCOC(=O)N1CCC(NC(=O)Cn2c3c(c(-c4ccccc4Cl)cc2=O)CCC3)CC1
Reply: 94.5% (inactive)

Query: Fill in reported viability for this entry: CCCCN(CC)CCCNC(=O)c1cc2c(=O)n(C)c3ccccc3c2n1C
Reply: 76% (inactive)

Query: Fill in reported viability for this entry: CCOc1ccccc1C1CC(c2ccc(Br)cc2)Nc2nc(N)nn21 (stereo unspecified)
Reply: 91.5% (inactive)

Query: Fill in reported viability for this entry: COc1cccc(C2CC(c3ccc(C)cc3)n3nc(N)nc3N2)c1 (stereo unspecified)
Reply: 104% (inactive)

Query: Fill in reported viability for this entry: Cn1nnnc1SCC(=O)N1CCN(c2ccccc2)CC1
Reply: 94.5% (inactive)
